Assay: inhibition of 3D7 malaria parasite growth – strain 3D7 (AID 2306);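 note: 0% = DMSO wells and 100% = chloroquine plus artemisinin control wells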
Conditions: P. falciparum 3D7 erythrocytic growth, LDH absorbance, 72 h; at 2 µM; hits give high values
Activity calls are given as the source filed them. The rule behind the calls is not given here.
Provide the recorded growth inhibition for the entries that follow.

Some solved entries appear below for comparison.
Data point: Fc1ccc2[nH]c3c(NCCN4CCCCC4)ncnc3c2c1 ; growth inhibition = 99% (active)

Field growth inhibition (entry CC(C)(c1ccccc1)c1ccc(O)c(CN2CCOCC2)c1 ) reads 99% (active)

So, CCCCc1ccccc1NS(=O)(=O)c1ccc(OC)c(N2CCNCC2)c1 ? Its growth inhibition was 91% (active)

# growth inhibition (compound: N#Cc1ccc(NC2(C(=O)N3CCN(c4cccc(Cl)c4)CC3)CC2)c2ccccc12 ) is 94% (active)

Quick note, growth inhibition for CC(C)N1CCC(N(Cc2ccc(-c3ccc(C(F)(F)F)cc3)cc2)C(=O)Cn2c(SCc3cccc(F)c3F)cc(=O)c3ccccc32)CC1 landed at 100% (active)

CCCCCCCCNCC(O)c1cc(-c2ccc(Cl)cc2)nc2cc(C)ccc12 (stereo not given) has a reported growth inhibition of 99% (active)

Documented growth inhibition of CCOC(=O)C1=C(C)NC(C)=C(C(=O)OCC)C1(C(=O)OCc1ccccc1)c1cccc(C(F)(F)F)c1 : 88% (active)

# growth inhibition of Cc1sc2cc(Cl)cc(Cl)c2c1S(=O)(=O)Nc1ccc2nccc(N3CCNCC3)c2c1 = 100% (active)

Quick request: growth inhibition for each listed item, please.
1. COc1cc(C(F)(F)F)nc2c(CNCCCNc3cc(=O)c4ccccc4[nH]3)scc12
2. COc1cc(OC)c2c(C)cc(NCCCn3ccnc3)nc2c1
3. Cc1cccc2[nH]c(-c3ccc(-c4ccc(CNCc5cccc(N)c5)cc4)s3)nc12
4. Cc1cccc2[nH]c(-c3ccc(-c4ccc(CNCc5cccc(N)c5)cc4)cc3)nc12
5. COC(=O)c1cccc(CNCc2cccc(-c3ccc(-c4nc5c(C)cccc5[nH]4)cc3)c2)c1
6. O=C(Nc1ccc(-c2ccccc2)cc1)Nc1cccc(Cn2nc(Cl)c(N3CCNCC3)cc2=O)c1
7. CC(C)CSc1cc(C(=O)Nc2cc(Cl)ccc2O)ccn1

OUTPUT:
1: 92% (active); 2: 102% (active); 3: 102% (active); 4: 102% (active); 5: 102% (active); 6: 102% (active); 7: 100% (active)
